# Experimental Target: FGFR1 (Homo sapiens, UniProt P11362)
# Construct: made in house; host or cells: Sf9 insect cells, baculovirus (pFastBacHis), by the same method as VEGFR2
# Sequence (P11362 398-822 limits assumed): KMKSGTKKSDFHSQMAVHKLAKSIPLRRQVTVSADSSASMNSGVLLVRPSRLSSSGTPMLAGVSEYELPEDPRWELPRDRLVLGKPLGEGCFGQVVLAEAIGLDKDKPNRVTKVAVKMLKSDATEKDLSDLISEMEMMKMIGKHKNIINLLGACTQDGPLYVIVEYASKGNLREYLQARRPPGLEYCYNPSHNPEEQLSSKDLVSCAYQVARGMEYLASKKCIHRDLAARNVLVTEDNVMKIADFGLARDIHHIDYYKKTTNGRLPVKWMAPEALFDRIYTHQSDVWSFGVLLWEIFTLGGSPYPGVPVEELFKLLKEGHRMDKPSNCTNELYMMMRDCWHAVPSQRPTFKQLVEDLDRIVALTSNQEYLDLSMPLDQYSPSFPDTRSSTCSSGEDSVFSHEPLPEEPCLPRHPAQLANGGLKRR
# Measurement Protocol: Inhibition against receptor tyrosine kinase activity (HTRF), FGFR1
# Assay type: biochemical
# Applied Conditions: His6-FGFR1 cytoplasmic domain, biotin-poly(GT), HTRF; read-out: FGFR1 kinase IC50
pIC50: −log10 of the molar value.
Label fulfilled for high-side pIC50 (at or above 8) and not fulfilled for low-side pIC50 (below it).

Has `CCCNC(=O)n1ccc2cc(Oc3ccnc(NC(=O)N4CCCC4)c3)ccc21` a recorded pIC50 greater than or equal to 8?
not fulfilled

Subsequent entry: `CNC(=O)n1ccc2cc(Oc3ccnc(NC(=O)N4CCC(N5CCOCC5)CC4)c3)ccc21`
not fulfilled

What about `CNC(=O)n1ccc2cc(Oc3ccnc(NC(=O)N4CCCC4)c3)ccc21` ?
fulfilled

Now the same for `CNC(=O)n1ccc2cc(Oc3ccnc(NC(=O)N4CCOCC4)c3)ccc21`
fulfilled

# iterate: `C#CCNC(=O)n1ccc2cc(Oc3ccnc(NC(=O)N4CCCC4)c3)ccc21`
not fulfilled

###

# Experimental Target: FGFR1 (Homo sapiens)
# Construct: made in house; host or cells: Sf9 insect cells, baculovirus (pFastBacHis), by the same method as VEGFR2
# Measurement Protocol: Inhibition against receptor tyrosine kinase activity (HTRF), FGFR1
# Type: biochemical
# Applied Conditions: His6-FGFR1 cytoplasmic domain, biotin-poly(GT), HTRF; read-out: FGFR1 kinase IC50
Recorded Metric: pIC50
For clarity, pIC50 is expressed as the negative log10 of concentration in mol/L.

Fill in the blank: the reported pIC50 of CCNC(=O)n1ccc2cc(Oc3ccnc(NC(=O)N4CCOCC4)c3)ccc21 [Example 82] is ____.
7.62

And for CCN(CC)C1CCN(C(=O)Nc2cc(Oc3ccc4c(ccn4C(=O)NC)c3)ccn2)CC1 [Example 211] ?
7.44

Quick one: CNC(=O)n1ccc2cc(Oc3ccnc(NC(=O)N4CCC(N5CCC5)CC4)c3)ccc21 [Example 210]
7.40

Consider next the compound O=C(Nc1cc(Oc2ccc3c(ccn3C(=O)NC3CC3)c2)ccn1)N1CCC(N2CCCC2)CC1 [Example 68] in the same way.
7.28

Lookup CNC(=O)n1ccc2cc(Oc3ccnc(NC(=O)N4CCC(N5CCC(O)CC5)CC4)c3)ccc21 [Example 212]
7.72

Can you handle CNC(=O)n1ccc2cc(Oc3ccnc(NC(=O)NCC(N)=O)c3)ccc21 [Example 11] next?
7.33

And then CNC(=O)n1ccc2cc(Oc3ccnc(NC(=O)NCC(=O)N4CCCC4)c3)ccc21 [Example 7] , what is it?
7.59

Queued: CNC(=O)n1ccc2cc(Oc3ccnc(NC(=O)N[C@@H](CO)C(=O)N4CCCC4)c3)ccc21 [Example 18]
7.15

Next entry: CNC(=O)Nc1cc(Oc2ccc3c(ccn3C(=O)NC)c2)ccn1 [Example 116]
7.06

Would you kindly repeat that for O=C(Nc1cc(Oc2ccc3c(ccn3C(=O)NC3CC3)c2)ccn1)N1CCC1 [Example 208] ?
8.17

Proceed to CNC(=O)n1ccc2cc(Oc3ccnc(NC(=O)N4CCC(N5CCCC5)CC4)c3)ccc21 [Example 46]
7.92

Continue with CNC(=O)n1ccc2cc(Oc3ccnc(NC(=O)N4CCC(CCCC(N)=O)CC4)c3)ccc21 [Example 44]
7.85

Now the same for CNC(=O)n1ccc2cc(Oc3ccnc(NC(=O)NCCCC(=O)NC4CC4)c3)ccc21 [Example 33]
7.92

Moving on to the next compound: CNC(=O)n1ccc2cc(Oc3ccnc(NC(=O)N4CCC(O)CC4)c3)ccc21 [Example 39]
8.20

Please give the result for CCNC(=O)n1ccc2cc(Oc3ccnc(NC(=O)N4CCCC4)c3)ccc21 [Example 81] too.
7.42

And for CNC(=O)n1ccc2cc(Oc3ccnc(NC(=O)N4CCC(C)(O)CC4)c3)ccc21 [Example 41] ?
8.49

Next compound: CNC(=O)n1ccc2cc(Oc3ccnc(NC(=O)NCCCC(=O)N4CCC(C)(O)CC4)c3)ccc21 [Example 34]
7.66

###

# Experimental Target: VEGFR2 (Homo sapiens)
# Construct: coding for the cytoplasmic domain, beginning with lysine 791 and including the termination codon; made in house; host or cells: Sf9 insect cells, baculovirus (pFastBacHis)
# Sequence (P35968 786-1356 limits assumed): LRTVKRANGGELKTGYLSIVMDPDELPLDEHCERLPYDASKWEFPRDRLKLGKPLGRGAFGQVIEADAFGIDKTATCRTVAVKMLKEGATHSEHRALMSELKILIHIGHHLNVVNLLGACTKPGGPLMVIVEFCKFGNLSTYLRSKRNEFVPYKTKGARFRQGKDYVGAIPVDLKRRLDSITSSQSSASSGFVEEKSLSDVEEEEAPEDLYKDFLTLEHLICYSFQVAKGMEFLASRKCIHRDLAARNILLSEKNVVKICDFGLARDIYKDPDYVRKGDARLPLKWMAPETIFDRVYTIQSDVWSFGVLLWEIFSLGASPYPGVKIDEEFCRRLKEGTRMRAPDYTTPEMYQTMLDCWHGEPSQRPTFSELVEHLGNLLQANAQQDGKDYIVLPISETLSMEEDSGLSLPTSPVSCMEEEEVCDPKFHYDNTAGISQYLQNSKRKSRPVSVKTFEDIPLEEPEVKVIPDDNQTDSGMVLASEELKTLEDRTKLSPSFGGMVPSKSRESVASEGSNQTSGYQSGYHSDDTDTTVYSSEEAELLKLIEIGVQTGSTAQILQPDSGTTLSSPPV
# Measurement Protocol: Inhibition against receptor tyrosine kinase activity (HTRF), VEGFR2
# Format: biochemical
# Applied Conditions: His6-VEGFR2 cytoplasmic domain, biotin-poly(GT), HTRF; read-out: VEGFR2 kinase IC50
# Procedure: This assay is used to determine inhibition of a test substance on tyrosine kinase activity. […] Expression in an appropriate expression system can produce a polypeptide with tyrosine kinase activity. […] The recombinant construct was transfected into insect cells (Spondoptea frugiperda9 (Sf9)) to prepare a recombinant Baculovirus. For expression of the VEGFR2 tyrosine kinase, Sf9 cells were infected with the VEGFR2 recombinant virus and collected after 48 hours. […]
Hi! Just check whether IC50 is below 9 nM. Below gives class 1, equal or above gives class 0.

Consider the compound `CNC(=O)n1cc(Cl)c2cc(Oc3ccnc(NC(=O)N4CCC(O)CC4)c3)ccc21` . Is its IC50 strictly less than 9 nM?
class 1

What about `O=C(Nc1cc(Oc2ccc3c(ccn3C(=O)NC3CC3)c2)ccn1)N1CCC1` ?
class 1

Same read-out for `CCNC(=O)n1ccc2cc(Oc3ccnc(NC(=O)N4CCCC4)c3)ccc21` ?
class 0

Can you handle `CNC(=O)n1ccc2cc(Oc3ccnc(NC(=O)N4CCCC4)c3)ccc21` next?
class 1

Consider next the compound `CCNC(=O)n1ccc2cc(Oc3ccnc(NC(=O)N4CCC(O)CC4)c3)ccc21` in the same way.
class 0

Would you mind doing `O=C(Nc1cc(Oc2ccc3c(ccn3C(=O)NC3CC3)c2)ccn1)N1CCC(N2CCCC2)CC1` as well?
class 0

Queued: `CNC(=O)n1ccc2cc(Oc3ccnc(NC(=O)N4CCC(N5CCCC5)CC4)c3)ccc21`
class 0

Another compound to look at: `CNC(=O)n1ccc2cc(Oc3ccnc(NC(=O)N4CCC(O)CC4)c3)ccc21`
class 1

Check `CNC(=O)n1ccc2cc(Oc3ccnc(NC(=O)NCC(=O)N4CCCC4)c3)ccc21` too.
class 1

Please give the result for `CNC(=O)n1ccc2cc(Oc3ccnc(NC(=O)N4CCOCC4)c3)ccc21` too.
class 1

Then `CNC(=O)n1ccc2cc(Oc3ccnc(NC(=O)NCCCC(=O)NC4CC4)c3)ccc21` ?
class 1

Let us now turn to `CNC(=O)n1ccc2cc(Oc3ccnc(NC(=O)N4CCC(N5CCOCC5)CC4)c3)ccc21`
class 0

Also `CNC(=O)n1ccc2cc(Oc3ccnc(NC(=O)N4CCC(N5CCC(O)CC5)CC4)c3)ccc21` ?
class 1

###

# Experimental Target: FGFR1 (Homo sapiens)
# Construct: made in house; host or cells: Sf9 insect cells, baculovirus (pFastBacHis), by the same method as VEGFR2
# Measurement Protocol: Inhibition against receptor tyrosine kinase activity (HTRF), FGFR1
# Format: biochemical
Recorded Metric: IC50 (nM)
Provide the reading as a plain figure in nM.

Requested read-out: IC50. Entry: `CNC(=O)n1ccc2cc(Oc3ccnc(NC(=O)N4CCC(=O)CC4)c3)ccc21`
6.9

###

# Experimental Target: FGFR1 (Homo sapiens)
# Construct: made in house; host or cells: Sf9 insect cells, baculovirus (pFastBacHis), by the same method as VEGFR2
# Measurement Protocol: Inhibition against receptor tyrosine kinase activity (HTRF), FGFR1
# Type: biochemical
# Applied Conditions: His6-FGFR1 cytoplasmic domain, biotin-poly(GT), HTRF; read-out: FGFR1 kinase IC50
Recorded Metric: pIC50
Bear in mind: pIC50 is minus log10 of a mol/L concentration; give just that figure.

# returns recorded pIC50 (system: FGFR1 (Homo sapiens)) for CNC(=O)n1ccc2cc(Oc3ccnc(NC(=O)N4CCC4)c3)ccc21 [Example 206]
8.46

Another molecule: CNC(=O)CCCC1CCN(C(=O)Nc2cc(Oc3ccc4c(ccn4C(=O)NC)c3)ccn2)CC1 [Example 43]
7.74

Try this molecule next: O=C(Nc1cc(Oc2ccc3c(ccn3C(=O)NC3CC3)c2)ccn1)N1CCCC1 [Example 88]
7.62

Next: CCN(CC)C(=O)Nc1cc(Oc2ccc3c(ccn3C(=O)NC)c2)ccn1 [Example 119]
6.92

Field entry: CNC(=O)n1ccc2cc(Oc3ccnc(NC(=O)N4CCC(N5CCCCC5)CC4)c3)ccc21 [Example 47]
7.68

And CNC(=O)n1ccc2cc(Oc3ccnc(NC(=O)NCCCC(=O)N4CCCC4)c3)ccc21 [Example 32] ?
7.80

And CNC(=O)n1cc(Cl)c2cc(Oc3ccnc(NC(=O)N4CCC(O)CC4)c3)ccc21 [Example 104] ?
7.72

Another molecule: CCNC(=O)n1ccc2cc(Oc3ccnc(NC(=O)N4CCC(O)CC4)c3)ccc21 [Example 79]
7.60

This collection of values is drawn from patent US20060004029A1.
